- Test system: phospho-Akt in HCC827 (Wild-type)
- METHOD: In-Cell Western phospho-Akt, HCC827
- Type: cell-based
- CONDITION INFO: Homo sapiens, 1 h; HCC827, one hour treatment; read-out: In-Cell Western HCC827 (Wild-type) Akt (P)
- Protocol: In-cell phosphorylation assays for Erk and Akt were performed on several of the compounds and exemplary results are shown in Table 3 below using HCC827 and A375 cell lines for wild type K-Ras and Panc1 and Panc10.05 cell lines for G12D K-Ras mutants. […] Cells are seeded in complete medium into black sided, clear-bottom 384-well microplates at 3000 cells/27 ul/well. […] Plates are imaged on the Celigo (Nexcelom) and cellular fluorescence is quantitated. […] EC50 values are calculated using Graphpad Prism.
pEC50: −log10 of the molar value.
REPORTED ENDPOINT: pEC50

COMPOUND	ASSAY TARGET	REPORTED ENDPOINT	DATA VALUE
CC(C)c1nn(C)cc1C(=O)Nc1nc(-c2ccc3c(c2)CCC(=O)N3)cs1	phospho-Akt in HCC827 (Wild-type)	pEC50	< 4.60
Cc1nc(C)c(C(=O)Nc2nc(-c3ccc4c(c3)CCC(=O)N4Cc3nnn[nH]3)cs2)o1	phospho-Akt in HCC827 (Wild-type)	pEC50	< 4.60
CCn1ncc(C(=O)Nc2nc(-c3ccc4c(c3)CCC(=O)N4)cs2)c1C1CC1	phospho-Akt in HCC827 (Wild-type)	pEC50	< 4.60
CCc1cc(C(=O)Nc2nc(-c3ccc4c(c3)CCC(=O)N4)cs2)n(C)n1	phospho-Akt in HCC827 (Wild-type)	pEC50	< 4.60
Cn1ncc(C(=O)Nc2nc(-c3ccc4c(c3)CCC(=O)N4)cs2)c1C1CC1	phospho-Akt in HCC827 (Wild-type)	pEC50	< 4.60
CCn1cc(C(=O)Nc2nc(-c3ccc4c(c3)CCC(=O)N4)cs2)cn1	phospho-Akt in HCC827 (Wild-type)	pEC50	< 4.60
COc1nn(C)cc1C(=O)Nc1nc(-c2ccc3c(c2)CCC(=O)N3)cs1	phospho-Akt in HCC827 (Wild-type)	pEC50	< 4.60
Cn1cc(C(=O)Nc2nc(-c3ccc4c(c3)CCC(=O)N4)cs2)c(C(C)(C)C)n1	phospho-Akt in HCC827 (Wild-type)	pEC50	< 4.60
Cc1nn(C(C)C)c(C)c1C(=O)Nc1nc(-c2ccc3c(c2)CCC(=O)N3Cc2cccnc2)cs1	phospho-Akt in HCC827 (Wild-type)	pEC50	< 4.60
Cc1nc(C)c(C(=O)Nc2nc(-c3ccc4c(c3)CCC(=O)N4CC3CCOC3)cs2)o1 (stereo not drawn)	phospho-Akt in HCC827 (Wild-type)	pEC50	5.00
Cc1nn(C)c(C)c1C(=O)Nc1nc(-c2ccc3c(c2)CCC(=O)N3)cs1	phospho-Akt in HCC827 (Wild-type)	pEC50	4.60
Cn1cc(C(=O)Nc2nc(-c3ccc4c(c3)CCC(=O)N4)cs2)c(-c2ccccc2)n1	phospho-Akt in HCC827 (Wild-type)	pEC50	< 4.60
CCn1nc(C)c(C(=O)Nc2nc(-c3ccc4c(c3)CCC(=O)N4CCOC)cs2)c1C	phospho-Akt in HCC827 (Wild-type)	pEC50	< 4.60
Cc1nc(C)c(C(=O)Nc2nc(-c3ccc4c(c3)CCC(=O)N4CCn3cncn3)cs2)o1	phospho-Akt in HCC827 (Wild-type)	pEC50	< 4.60
COCCN1C(=O)CCc2cc(-c3csc(NC(=O)c4oc(C(C)C)nc4C)n3)ccc21	phospho-Akt in HCC827 (Wild-type)	pEC50	< 4.60
CCn1cc(C(=O)Nc2nc(-c3ccc4c(c3)CCC(=O)N4Cc3cccnc3)cs2)c(C)n1	phospho-Akt in HCC827 (Wild-type)	pEC50	< 4.60
Cc1nn(C(C)(C)C)c(C)c1C(=O)Nc1nc(-c2ccc3c(c2)CCC(=O)N3)cs1	phospho-Akt in HCC827 (Wild-type)	pEC50	< 4.60
Cc1nc(C2CC2)oc1C(=O)Nc1nc(-c2ccc3c(c2)CCC(=O)N3Cc2cccnc2)cs1	phospho-Akt in HCC827 (Wild-type)	pEC50	4.72
CCn1cc(C(=O)Nc2nc(-c3ccc4c(c3)CCC(=O)N4)cs2)c(C(F)(F)F)n1	phospho-Akt in HCC827 (Wild-type)	pEC50	< 4.60
COCCN1C(=O)CCc2cc(-c3csc(NC(=O)c4c(C)nn(C)c4C)n3)ccc21	phospho-Akt in HCC827 (Wild-type)	pEC50	< 4.60
Cn1cc(C(=O)Nc2nc(-c3ccc4c(c3)CCC(=O)N4)cs2)cn1	phospho-Akt in HCC827 (Wild-type)	pEC50	< 4.60
CCc1nc(C)c(C(=O)Nc2nc(-c3ccc4c(c3)CCC(=O)N4Cc3ccccn3)cs2)o1	phospho-Akt in HCC827 (Wild-type)	pEC50	5.00
Cc1nn(C(C)C)cc1C(=O)Nc1nc(-c2ccc3c(c2)CCC(=O)N3)cs1	phospho-Akt in HCC827 (Wild-type)	pEC50	< 4.60
Cc1nn(-c2ccccc2)cc1C(=O)Nc1nc(-c2ccc3c(c2)CCC(=O)N3)cs1	phospho-Akt in HCC827 (Wild-type)	pEC50	< 4.60
